// data source = PubChem BioAssay AID651549

# assay-overview: GAPDH and PEG-3 promoter luciferase suppression – cell-based, luminescence, set 2, counter-screen for PEG-3 promoter inhibitor project, dose response (AID 651549)
# assay-setup: HeLa PEG-Prom-luciferase or GAPDH-reporter, 6/24 h, PEG-3, run 1, 24 h
Active and inactive are the calls of the source.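 How the source made its calls: active means compounds blocking the PEG3 reporter with IC50 up to 10 µM at either incubation, yet sparing the GAPDH control reporter; inactive means the rest.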
Classes used: y = active, n = inactive

# compound, class-label
data = [
    ("CCCn1nc(C(=O)Nc2nc(-c3ccccn3)cs2)c2ccccc2c1=O", "n"),
    ("COC(=O)C1=C(CN2CCCc3ccccc32)NC(=O)NC1c1ccc(F)cc1 (stereo unspecified)", "y"),
    ("CCC1(O)C(=O)OCc2c1cc1n(c2=O)Cc2cc3cc(O)ccc3nc2-1 (stereo unspecified)", "y"),
    ("O=C(NCC1CCCO1)C(c1ccc(F)cc1)N(C(=O)Cn1nnc(-c2ccc(F)cc2)n1)c1cccc(O)c1 (stereo unspecified)", "n"),
    ("CS(=O)(=O)c1ccc(-c2cn3cc(C(=O)O)ccc3n2)cc1", "n"),
    ("CCC(c1nnnn1-c1ccc2c(c1)OCCO2)N1CCC(n2c(=O)[nH]c3ccccc32)CC1 (stereo unspecified)", "n"),
    ("Cc1cc(C)cc(NS(=O)(=O)c2ccc3c(c2)c(=O)n(C)c(=O)n3C)c1", "y"),
    ("CCc1ccn2cc(-c3ccc4c(c3)OCO4)nc2c1", "y"),
    ("C=CCn1c(C)cc(C(=O)COc2ccc(C)nc2[N+](=O)[O-])c1C", "y"),
    ("CN1CCC2(CC1)N=C(c1ccc(F)cc1)C(=S)N2C(=O)c1ccc(C(C)(C)C)cc1", "n"),
    ("Cc1ccc2nc(NC(=O)CSCC(=O)OCC(=O)c3ccccc3)sc2c1", "n"),
    ("COc1cc2nc(CN3CC=C(c4ccccc4)CC3)[nH]c(=O)c2cc1OC", "n"),
    ("CC(C)(C)c1ccc(Cn2c(=O)cnc3ccccc32)cc1", "n"),
    ("CCOC(=O)c1ccc2nc(Nc3nc4ccc(F)cc4s3)sc2c1", "y"),
    ("Cc1ccc(C)c(S(=O)(=O)N2CCN(c3ncnc4sccc34)CC2)c1", "y"),
    ("O=C(O)c1ccc2nc(-c3ccccc3)sc2c1", "y"),
    ("CCSc1nc2ccccc2n1C(=O)/C=C\\c1ccc(OC)c(OC)c1", "y"),
    ("O=C(c1ccco1)N1CCN(C(c2ccccc2Cl)c2nnnn2Cc2cccs2)CC1 (stereo unspecified)", "n"),
    ("CC(=O)c1cccc(-c2ccnc3c2CC(C(=O)Nc2cccc(NS(C)(=O)=O)c2)O3)c1 (stereo unspecified)", "n"),
    ("CCCCCCCn1c(=N)n(CC(=O)c2ccco2)c2ccccc21", "n"),
    ("CCn1cc(C(=O)NCc2ccco2)c(=O)c2cc(S(=O)(=O)N3CC(C)CC(C)C3)ccc21 (stereo unspecified)", "y"),
]

###

# assay-overview: GAPDH and PEG-3 promoter luciferase suppression – cell-based, luminescence, set 2, counter-screen for PEG-3 promoter inhibitor project, dose response (AID 651549)
# assay-setup: HeLa PEG-Prom-luciferase or GAPDH-reporter, 6/24 h, PEG-3, run 1, 24 h
Active and inactive are the calls of the source.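 How the source made its calls: active means compounds blocking the PEG3 reporter with IC50 up to 10 µM at either incubation, yet sparing the GAPDH control reporter; inactive means the rest.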
Classes used: YES = active, NO = inactive

# compound, class-label
records = [
    ("COc1ccc(-n2cc(-c3ccccc3)c3c(N4CCOCC4)ncnc32)cc1", "NO"),
    ("Cc1nc2c(-c3ccc(Cl)cc3)c(C)[nH]n2c(=O)c1Cc1ccccc1", "YES"),
    ("COc1ccc(CC2C(=O)NC(C)C(=O)N(C)C3C(=O)N(C)C(Cc4ccc(O)c(c4)Oc4ccc(cc4)C3O)C(=O)NC(C)C(=O)NC(C)C(=O)N2C)cc1 (stereo not given)", "YES"),
    ("COc1ccc(C(=O)Nc2ccc(C)cn2)c(OC)c1", "YES"),
    ("Cc1cc2cc(CCNC(=O)C(=O)c3c[nH]c4ccccc34)c(=O)[nH]c2cc1C", "YES"),
    ("O=C(Nc1cccc(-c2ccc(N3CCCCC3)nn2)c1)C(F)(F)F", "YES"),
    ("Cc1cccc(NC(=O)c2oc3ccc(S(=O)(=O)N4CCOCC4)cc3c2C)c1C", "YES"),
    ("CS(=O)(=O)c1ccc(-c2sc3ccccc3c2C#CCCO)cc1", "NO"),
    ("COc1ccc(Nc2ncnc3ccc(Br)cc23)c(OC)c1", "YES"),
    ("O=C(O)CSCC(=O)Nc1ccc(C2CCCCC2)cc1", "YES"),
]
